These measurements were taken from PubChem BioAssay (EPA / NIEHS).

- Read-out: CD38, CD38 (gene 952)
- testMethodNotes: BSK_SAg_CD38: BioMAP Diversity Plus: SAg Assay for CD38 Biomarker Activity (AID 2283087)
- conditionSummary: primary human HUVEC with PBMC; actives raise or lower the signal
- Protocol: BSK_SAg is a cell-based, multiplexed-readout assay that uses umbilical vein endothelium and peripheral blood mononuclear cells, a human vascular primary cell co-culture, with measurements taken at 24 hours after chemical dosing in a 96-well plate.BSK_SAg_CD38 is one of 10 assay component(s) measured or calculated from the BSK_SAg assay. […] This assay endpoint, BSK_SAg_CD38, was analyzed with bidirectional fitting relative to DMSO as the negative control and baseline of activity. […]
The source made the active and inactive calls. The calls were made as follows: active = hit-call score of the fitted dose curve at least 0.9, where 1 is the maximum; inactive = score below 0.9.
readoutName: AC50

Worked set:
- compound: "CCCCCCCC1CCC(=O)O1 (configuration not stated)"
  AC50: "inactive"
- compound: "COc1cc2c(c(OC)c1OC)-c1ccc(OC)c(=O)cc1[C@@H](NC(C)=O)CC2"
  AC50: "0.148 µM (active)"
- compound: "CCCCN1C(=O)[C@@H]([C@H](O)C2CCCCC2)NC(=O)C12CCN(Cc1ccc(Oc3ccc(C(=O)O)cc3)cc1)CC2"
  AC50: "inactive"
- compound: "C[Si](C)(C)C(F)(F)C(F)(F)C(F)(F)F"
  AC50: "inactive"
- compound: "FC(F)C(F)(F)COCC1CO1 (configuration not stated)"
  AC50: "inactive"

[ask] Give its AC50 value. Item: Cc1cccc(O)c1C
[reply] inactive

[ask] Record: CCCCCOC(C)=O
[reply] inactive

[ask] Record: CCOC(N)=O
[reply] inactive

[ask] Record: Cn1c(=O)c2[nH]cnc2n(C)c1=O
[reply] inactive

[ask] Record: CCCCC(CC)C(=O)OCCOCCOCCOC(=O)C(CC)CCCC (configuration not stated)
[reply] inactive

[ask] Record: CC(C)CCCCCCOC(=O)C1CCCCC1C(=O)OCCCCCCC(C)C (configuration not stated)
[reply] inactive

[ask] Record: CCCCOC(=O)c1ccccc1
[reply] inactive

[ask] Record: CC(C)CC(C)O (configuration not stated)
[reply] inactive

[ask] Record: CNC(C)=O
[reply] inactive

[ask] Record: CCCCCCCCN(C)C
[reply] inactive

* * *

- testMethodNotes: CEETOX_H295R_CORTISOL: CeeTox H295R High-throughput Steroidogenesis Assay for Cortisol (AID 2283438);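 also: cortisol secreted into medium quantified by LC-MS/MS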
- conditionSummary: actives raise or lower the signal
Active and inactive are the calls of the source. The calls were made as follows: active = hit-call score of the fitted dose curve at least 0.9, where 1 is the maximum; inactive = score below 0.9.
Outcome field: choose from active, inactive

[ask] What outcome does the record of this test show for Nc1ccn([C@@H]2O[C@H](CO)[C@@H](O)[C@@H]2O)c(=O)n1 ?
[reply] inactive

[ask] Record: CCCOc1ccc(S(=O)(=O)N2CCN(CC)CC2)cc1-c1nc2c(CC)n(Cc3ccccn3)nc2c(=O)[nH]1
[reply] inactive

[ask] Record: CCCCCCCCN(C)C
[reply] inactive

[ask] Record: C=CCc1cc(S(=O)(=O)c2ccc(O)c(CC=C)c2)ccc1O
[reply] active

[ask] Record: CCN(CC)C(=S)SSC(=S)N(CC)CC
[reply] inactive

[ask] Record: CCCCC(CC)C(=O)OCCOCCOCCOC(=O)C(CC)CCCC (centres undefined)
[reply] inactive

[ask] Record: C[C@]12C=CC(=O)C=C1CC[C@H]1[C@@H]3C[C@@H](O)[C@](O)(C(=O)CO)[C@@]3(C)C[C@H](O)[C@@]12F
[reply] inactive

[ask] Record: C[C@@H](Oc1ccc(CNC(=O)c2cccnc2Oc2ccc3c(c2)OCO3)c(F)c1)C(=O)O
[reply] inactive

[ask] Record: CC[C@H](C)C(=O)O[C@H]1C[C@H](O)C=C2C=C[C@H](C)[C@H](CC[C@@H](O)C[C@@H](O)CC(=O)O)[C@H]21
[reply] inactive
